molecular target: CCK receptor; assay: 125I-CCK-33 receptor binding (pancreas or brain; tissue not stated); conditions: 125I-CCK-33; tissue (rat pancreas or guinea pig brain) not stated; read-out: inhibition of specific 125I-CCK-33 binding, IC50
Below, each of the compounds is paired with its reported IC50 value.
Returns: string containing the number followed by the unit.

CCOC(=O)C(CCc1ccccc1)NC1CCCC(c2ccccc2)N(CC(=O)OC)C1=O (single isomer, unassigned) : 32 µM

In the following, a different compound is considered.
Fill blank: measured IC50 of the compound COC(=O)CN1C(=O)C(C)(NC(CCc2ccccc2)C(=O)OC)CCc2ccccc21 (centres unmarked) is ____.
72 µM
